# ASSAY OVERVIEW: Solubility of compound in water by nephelometry
# Assay type: physicochemical
PROPERTY NAME: solubility kinetic
Give the number first and the unit second.

The reported value for CN(C)CCCn1c(=S)[nH]c2ccc(Cl)cc2c1=O.Cl in terms of solubility kinetic is 90 µg/mL

---

# TARGET OF ASSAY: Xanthine dehydrogenase/oxidase (Homo sapiens)
# Sequence (P47989 whole entry): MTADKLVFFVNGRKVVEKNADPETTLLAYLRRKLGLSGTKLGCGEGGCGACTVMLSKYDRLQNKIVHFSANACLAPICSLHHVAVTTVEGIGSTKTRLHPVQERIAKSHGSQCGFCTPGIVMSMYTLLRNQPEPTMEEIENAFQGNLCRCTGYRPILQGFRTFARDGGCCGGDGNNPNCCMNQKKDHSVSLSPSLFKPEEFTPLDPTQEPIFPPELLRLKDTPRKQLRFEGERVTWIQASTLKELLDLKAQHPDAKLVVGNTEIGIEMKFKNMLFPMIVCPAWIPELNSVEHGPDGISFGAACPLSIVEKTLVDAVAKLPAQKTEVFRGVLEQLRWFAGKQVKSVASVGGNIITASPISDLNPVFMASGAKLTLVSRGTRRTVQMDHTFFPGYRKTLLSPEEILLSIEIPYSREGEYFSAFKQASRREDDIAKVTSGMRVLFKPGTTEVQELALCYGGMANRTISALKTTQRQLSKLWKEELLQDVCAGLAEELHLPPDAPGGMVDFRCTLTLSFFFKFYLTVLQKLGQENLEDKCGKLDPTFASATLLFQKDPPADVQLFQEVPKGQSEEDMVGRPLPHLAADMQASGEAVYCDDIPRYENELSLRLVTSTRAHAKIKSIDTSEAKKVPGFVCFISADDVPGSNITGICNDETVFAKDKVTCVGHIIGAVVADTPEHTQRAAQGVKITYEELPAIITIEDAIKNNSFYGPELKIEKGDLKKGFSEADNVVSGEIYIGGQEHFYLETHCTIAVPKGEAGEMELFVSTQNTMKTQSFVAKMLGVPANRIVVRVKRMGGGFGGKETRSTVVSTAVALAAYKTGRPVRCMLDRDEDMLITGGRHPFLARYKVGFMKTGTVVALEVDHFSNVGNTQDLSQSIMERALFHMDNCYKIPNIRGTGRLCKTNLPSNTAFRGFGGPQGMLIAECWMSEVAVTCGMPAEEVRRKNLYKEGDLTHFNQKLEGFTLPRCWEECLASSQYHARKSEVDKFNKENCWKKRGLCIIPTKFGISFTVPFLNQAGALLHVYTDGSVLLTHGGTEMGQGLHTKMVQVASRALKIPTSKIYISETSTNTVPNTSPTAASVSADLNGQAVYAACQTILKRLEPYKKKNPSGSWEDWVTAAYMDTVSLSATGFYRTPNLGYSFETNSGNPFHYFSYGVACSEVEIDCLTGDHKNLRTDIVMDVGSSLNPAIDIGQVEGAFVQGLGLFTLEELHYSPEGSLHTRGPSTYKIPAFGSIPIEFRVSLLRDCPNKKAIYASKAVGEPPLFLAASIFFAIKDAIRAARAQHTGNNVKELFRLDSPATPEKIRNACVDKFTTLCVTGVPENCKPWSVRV
# ASSAY OVERVIEW: Inhibition of xanthine oxidase (unknown origin) assessed as superoxide generation upto 100 uM measured for 20 mins by luminescence analysis using 50 uM xanthine as a substrate
# STATED CONDITIONS: read-out: Imax
So I've got a bunch of compounds here, and I need their Emax values.
Answers are plain numbers, in %.

// below: answered compounds
{"SMILES CODE": "CN(C)CCCCCCn1c(=S)[nH]c2ccc(F)cc2c1=O", "UNIT ABBREV": "%", "Emax": 35}
{"SMILES CODE": "CN(C)CCCn1c(=S)[nH]c2ccc(Cl)cc2c1=O.Cl", "UNIT ABBREV": "%", "Emax": 71}
{"SMILES CODE": "CN(C)CCCn1c(=S)[nH]c2cc(Cl)ccc2c1=O", "UNIT ABBREV": "%", "Emax": 50}
{"SMILES CODE": "CC(C)n1c(=S)[nH]c2cc3c(cc2c1=O)OCCO3", "UNIT ABBREV": "%", "Emax": 60}

Now consider a different compound.
The reported value for CN(C)CCCn1c(=S)[nH]c2ccccc2c1=O in terms of Emax is 20
